PROTOCOL_DETAILS: inhibitors of the yeast RAM network, pilot screen, dse1pr::URA3 reporter, 5-FOA selection (AID 869);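 further: 0% = DMSO wells with no growth and 100% = 10 µM 1-NA-PP1 with full growth; RAM network block rescues cells from 5-FOA so hits raise OD615 growth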
CONDITION_NOTES: S. cerevisiae dse1pr::URA3 5-FOA growth, OD615, 2 d; at 10 µM; stronger effect = higher value; strain carries analog-sensitive mutant Cbk1 kinase
QUANTITY_NAME: inhibition (%)
Kindly provide the numeric value in % only, without the unit symbol.

For orientation, consider the following solved cases.
Inquiry: // returns reported inhibition for input CCOCCn1c(CN(Cc2ccccc2)Cc2ccccc2)nc2c1c(=O)n(C)c(=O)n2C
Reply text: 1.48

Inquiry: CCOc1cc(OCC)cc(C(=O)Nc2cccnc2)c1 , same question.
Reply text: 1.77

Inquiry: Then CCCC(=O)Nc1cccc(C(=O)Nc2nccs2)c1 ?
Reply text: 0.285

Others:
Inquiry: Entry under review: COc1ccc(CSc2nnnn2C)cc1F . Reported inhibition?
Reply text: 2.62

Inquiry: Now the same for C=C(C)CSC1=C(C#N)C(c2ccccc2)CC(=O)N1 (centres undefined)
Reply text: 0.55

Inquiry: And for COc1ccccc1C(=O)Nc1nnn(C)n1 ?
Reply text: 0.84

Inquiry: // next record COc1ccc(C/C(N)=N/n2cnnc2)cc1
Reply text: 0.64

###

PROTOCOL_DETAILS: 384-well plate pilot, post-Golgi transport modulator project, inhibition of yeast transport mutant growth (AID 636)
CONDITION_NOTES: absorbance 615 nm, about 18 h, stronger effect = higher value
QUANTITY_NAME: inhibition (%)
State the answer as a number, implicitly in %.

Inquiry: Value lookup for inhibition; key = Clc1ccc(Cn2ncc3c(NCc4cccnc4)ncnc32)cc1
Reply text: -0.53

Inquiry: And for Cc1ncc(CO)c2c1OC(C)(C)OC2 ?
Reply text: -5.79

Inquiry: How about Cc1ccccc1-c1nc(CN2CCC(C(=O)NCc3cccnc3)CC2)c(C)o1 ?
Reply text: -1.71

Continuing:
Inquiry: So what's the measured inhibition for this one? Cc1cccc(OCCCC(=O)O)c1
Reply text: -4.73

Inquiry: How about COc1cc(C2c3c(oc4c(C)cc(C)cc4c3=O)C(=O)N2Cc2cccnc2)cc(OC)c1OC (stereo unspecified) ?
Reply text: 1.33

Inquiry: Also need CCOCCn1cnc2sc(C(=O)Nc3nc(C)c(C(=O)OCC)s3)c(C)c2c1=O , thanks.
Reply text: -1.18

###

PROTOCOL_DETAILS: SK-BR-3 cell growth inhibitors, pilot screen, 24 h, human (AID 572);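 further: compound exposure lasted between 18 and 24 h rather than exactly 24 h; 100% = carrier-treated control wells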
CONDITION_NOTES: SK-BR-3 viability, CellTiter-Glo luminescence, at 10 µM, stronger effect = lower value
QUANTITY_NAME: viability (%)
Field: numeric (%). Do not append units.

Inquiry: Sample CCCC(=O)O[C@]1(C(=O)CCl)[C@@H](C)C[C@H]2[C@@H]3CCC4=CC(=O)C=C[C@]4(C)[C@@]3(F)C(=O)C[C@@]21C — what was its viability?
Reply text: 88.5

Inquiry: Next entry: CC(C)Cn1c(=O)c(C(=O)Nc2ccccc2S(N)(=O)=O)c(O)c2ccccc21
Reply text: 118

Inquiry: # repeat for CCN(CC)CCn1c2ccccc2c2nc(C)sc21
Reply text: 113

Inquiry: Another molecule: Cn1cnc(S(=O)(=O)NCc2cccs2)c1
Reply text: 102

Inquiry: Could you do the same for COC(=O)c1sc(S(=O)(=O)NCc2cccs2)c(C(=O)OC)c1C , please?
Reply text: 84

Inquiry: Input CC(=O)N1CCN=C1SCc1ccc(Br)cc1
Reply text: 93

Inquiry: Same again, this time with COc1ccc2nc3oc(C(=O)N4CCCCC4)cc3cc2c1
Reply text: 98

Inquiry: Next molecule up: CCN(CC)CC(C)CNC(=O)CC(C(=O)N1CCc2ccccc21)n1ccnc1 (stereo not given)
Reply text: 88.5

More entries:
Inquiry: Return reported viability; argument: C[C@]12CCC(=O)C=C1CC[C@@H]1[C@@H]2CC[C@@]2(C)[C@H]1CC[C@]2(O)C(=O)CO
Reply text: 99

Inquiry: Try this molecule too: CCCCCn1c(CN2CCN(C)CC2)nc2c1c(=O)n(C)c(=O)n2C
Reply text: 103

###

PROTOCOL_DETAILS: viability gain of MRP-1-high H69AR cells under doxorubicin, pilot screen, MRP-1 activator project, CellTiter-Glo, duplicate (AID 807);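 further: compound pretreatment 18-22 h then 72 h combined with doxorubicin; 0% = doxorubicin alone and 100% = vehicle without doxorubicin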
CONDITION_NOTES: H69AR viability with doxorubicin, CellTiter-Glo luminescence; at 10 µM; stronger effect = higher value
QUANTITY_NAME: viability increase (%)
Form entry: value (%) — number only.

Inquiry: GET /values?readout=viability increase&item= CC(=NCc1cccnc1)C1=C(O)c2ccccc2C1=O
Reply text: -0.85

Inquiry: How about CCOC(=O)CN1CC23C=CC(O2)C(C(=O)O)C3C1=O (stereo not given) ?
Reply text: 0.14

Next:
Inquiry: Form field: reported viability increase of COCC(=O)NCc1nc2ccccc2[nH]1
Reply text: -1.85

Inquiry: # iterate: COc1ccc(S(=O)(=O)Nc2cc(Cl)ccc2OC)cc1
Reply text: -6.67

Inquiry: Follow-up entry: Cc1nc2ccccc2c2oc(C(=O)N3CCN(C4CCCCC4)CC3)cc12
Reply text: -3.69

Inquiry: Same thing, different compound: CSc1nc(N(CCO)CCO)c2sc3nc(-c4ccco4)c4c(c3c2n1)CCC4
Reply text: -4.84

Inquiry: And the next one, COc1ccc(C(=O)Nc2cc(=O)n(C)c(=O)n2C)cc1OC ?
Reply text: -1.84

Inquiry: Now give it for COc1ccc(Br)cc1C1CC(=O)N2CN(C)CSC2=C1C#N (stereo not given) too.
Reply text: -4.75

Inquiry: What do we get for O=C(O)c1ccc2c(c1)N(Cc1cccc(F)c1)C(=O)CS2 ?
Reply text: 0.93

Inquiry: Next compound up: COc1ccc(C(c2sc3nc(C)nn3c2O)N2CCC(C(N)=O)CC2)cc1OC (stereo not given)
Reply text: -0.96

Inquiry: Do the same for CCN1CCN(C(=O)C(NS(=O)(=O)c2ccc3nc(C)sc3c2)C(C)C)CC1 (stereo not given) please
Reply text: -0.67

Inquiry: Would you kindly repeat that for OC(COCc1cccs1)CN1CCN(c2ccccn2)CC1 (stereo not given) ?
Reply text: -1.3

Inquiry: Moving on to CC(=O)Nc1ccc(S(=O)(=O)NCCSCc2ccco2)cc1
Reply text: -4.43

Inquiry: And for CCC(C)N1CC23C=CC(O2)C(C(=O)OC)C3C1=O (stereo not given) ?
Reply text: 1.12

Inquiry: COc1ccc(-c2nc(SC)n(C)c(=O)c2C#N)cc1OC , same question.
Reply text: -4.81

Inquiry: Try OCC1(C2=NOC(O)(C(F)(F)F)C2)CCCCC1 (stereo not given) next.
Reply text: 1.19

###

PROTOCOL_DETAILS: SK-BR-3 cell growth inhibitors, pilot screen, 24 h, human (AID 572);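 further: compound exposure lasted between 18 and 24 h rather than exactly 24 h; 100% = carrier-treated control wells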
CONDITION_NOTES: SK-BR-3 viability, CellTiter-Glo luminescence, at 10 µM, stronger effect = lower value
QUANTITY_NAME: viability (%)
Output spec: scalar in %, unitless text.

# count of solved cases: 10
Inquiry: Could you share which viability value was measured for CCC(C)NC(=O)c1cc(-c2ccc(OC)cc2)on1 (stereo unspecified) ?
Reply text: 106

Inquiry: Next molecule up: COCCNc1nc(C(C)(C)C)nc2c1nnn2Cc1ccccc1Cl
Reply text: 87

Inquiry: Next: CCOC(=O)C1CCN(C(=O)C2(NC(=O)Nc3ccccc3Cl)CCCCC2)CC1
Reply text: 133

Inquiry: Can you check CCOc1cccc(/C(O)=C2/C(=O)C(=O)N(CCN3CCOCC3)C2c2cccnc2)c1 (stereo unspecified) next?
Reply text: 98.5

Inquiry: Follow-up item: CCCC(=O)Nc1ncnc2c1ncn2[C@@H]1O[C@@H]2COP(=O)(O)O[C@H]2[C@H]1OC(=O)CCC
Reply text: 102

Inquiry: Now try O=c1c2ccccc2nnn1CSc1nnc2sc3ccccc3n12 .
Reply text: 95

Inquiry: Another: c1ccc2nc(-c3nc4ccccc4[nH]3)ccc2c1
Reply text: 104

Inquiry: Note, next up: CC(C)(C)Nc1nc(NC(C)(C)C)nc(-n2ccnc2)n1
Reply text: 122

Inquiry: Consider next the molecule CCCCOCCCNC(=O)c1cccs1 in the same way.
Reply text: 103

Inquiry: Consider next the molecule CN(C#N)c1nc(N2CCOCC2)nc(N2CCOCC2)n1 in the same way.
Reply text: 111

Now for another entry.
Inquiry: // viability lookup, key: O=C(NCCCn1ccnc1)c1cnn2c1NC(c1ccccc1)CC2C(F)(F)F (stereo unspecified)
Reply text: 93.5

###

Form field: inhibition (one value per entry).
PROTOCOL_DETAILS: growth suppression of yeast trafficking mutant, preliminary HTS, modulators of trafficking downstream of Golgi apparatus project, 1536-format plate, OD 615 nm (AID 637)
CONDITION_NOTES: yeast transport mutant growth, absorbance 615 nm, 18 h; stronger effect = higher value
Field format: number, assumed %, no unit text.

Inquiry: Report inhibition for Nc1ccc(C(=O)OCCCc2nc3ccccc3[nH]2)cc1 please.
Reply text: -19.1

Would you kindly look at the next entry?
Inquiry: Reported inhibition, molecule CC(C)=CC(=O)N1CCCc2ccccc21 : ____
Reply text: -7.21
